Origin of the recorded values: a melting point compilation (Tetko et al.)

conditions: a range is the spread between reports
measurementType: melting point

Please review the entries below; each comes with its answer.
>  <molecule>
Oc1ccccc1-c1ccccc1

>  <melting point>
56 to 60 °C

$$$$
>  <molecule>
O=C(O)c1ccc([N+](=O)[O-])c([N+](=O)[O-])c1

>  <melting point>
165 to 166 °C

$$$$
>  <molecule>
CC(=O)/C=C/c1ccccc1

>  <melting point>
40 to 42 °C

$$$$
>  <molecule>
c1csc(-c2cccs2)c1

>  <melting point>
32 to 33 °C

$$$$
>  <molecule>
COc1cccc(OC)c1OC

>  <melting point>
44 to 48.5 °C

$$$$
>  <molecule>
COc1cc(OC)c2ccc(=O)oc2c1

>  <melting point>
148 to 149 °C

$$$$
>  <molecule>
O=C1CCCC1

>  <melting point>
-51.9 to -51 °C

$$$$
>  <molecule>
Clc1cccc(-c2ccccc2)c1

>  <melting point>
16 to 18 °C

$$$$

Give the measured melting point of CCc1ccccc1Cl . -83 to -82.7 °C

Give the measured melting point of COc1cccc(O)c1O . 42 to 42.8 °C

Give the measured melting point of O=C(O)c1ccccc1Br . 146 to 150 °C

Give the measured melting point of NS(=O)(=O)c1cc(C(=O)O)ccc1Cl . 257 to 258 °C
